- target or test system: T1, human TL1A extracellular domain with N-terminal HIS and FLAG tag (human, UniProt O95150 72-251)
- T1 sequence: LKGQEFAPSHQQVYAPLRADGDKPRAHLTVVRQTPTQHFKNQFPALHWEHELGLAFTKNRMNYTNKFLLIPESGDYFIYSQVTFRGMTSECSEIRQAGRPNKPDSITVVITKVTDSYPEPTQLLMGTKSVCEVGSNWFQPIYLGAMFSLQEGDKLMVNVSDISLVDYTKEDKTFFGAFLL
- measurement notes: cell-based or functional assay
result type: Fold improvement over 320-179, TL1A induced caspase potency assay in TF-1 cells
# answer = value followed by unit

binder: 320-583 (antibody, human IgG1, name in Kabat numbering, V domains shown, full-length human IgG1, lambda) VH: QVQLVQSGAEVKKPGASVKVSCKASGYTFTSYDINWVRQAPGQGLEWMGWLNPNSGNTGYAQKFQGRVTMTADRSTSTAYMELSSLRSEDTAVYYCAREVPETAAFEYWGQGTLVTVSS VL: QSVLTQPPSVSGAPGQRVTISCTSSSSDIGAALGVHWYQQLPGTAPKLLIEGYYNRPSGVPDRFSGSKSGTSASLTITGLLPEDEGDYYCQSWDGTLSALFGGGTKLTVLG
value: 27 fold

Now for the binder whose Fold improvement over 320-179, TL1A induced caspase potency assay in TF-1 cells we want.
Could you please provide reported Fold improvement over 320-179, TL1A induced caspase potency assay in TF-1 cells for 320-547 (antibody, human IgG1, name in Kabat numbering, V domains shown, full-length human IgG1, lambda) VH: QVQLVQSGAEVKKPGASVKVSCKASGYTFTSYDINWVRQAPGQGLEWMGWLNPNSGYTGYAQKFQGRVTMTADRSTSTAYMELSSLRSEDTAVYYCAREVPETAAFEYWGQGTLVTVSS VL: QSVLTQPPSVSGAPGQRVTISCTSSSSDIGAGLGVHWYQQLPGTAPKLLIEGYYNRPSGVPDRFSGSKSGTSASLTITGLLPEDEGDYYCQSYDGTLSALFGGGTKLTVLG ? Thanks!
10 fold

These data points were gathered from patent US20170081400A1.
